Data origin: patent US9783513B2

study-system: STAT3 (Homo sapiens, UniProt P40763)
Sequence (P40763 whole entry): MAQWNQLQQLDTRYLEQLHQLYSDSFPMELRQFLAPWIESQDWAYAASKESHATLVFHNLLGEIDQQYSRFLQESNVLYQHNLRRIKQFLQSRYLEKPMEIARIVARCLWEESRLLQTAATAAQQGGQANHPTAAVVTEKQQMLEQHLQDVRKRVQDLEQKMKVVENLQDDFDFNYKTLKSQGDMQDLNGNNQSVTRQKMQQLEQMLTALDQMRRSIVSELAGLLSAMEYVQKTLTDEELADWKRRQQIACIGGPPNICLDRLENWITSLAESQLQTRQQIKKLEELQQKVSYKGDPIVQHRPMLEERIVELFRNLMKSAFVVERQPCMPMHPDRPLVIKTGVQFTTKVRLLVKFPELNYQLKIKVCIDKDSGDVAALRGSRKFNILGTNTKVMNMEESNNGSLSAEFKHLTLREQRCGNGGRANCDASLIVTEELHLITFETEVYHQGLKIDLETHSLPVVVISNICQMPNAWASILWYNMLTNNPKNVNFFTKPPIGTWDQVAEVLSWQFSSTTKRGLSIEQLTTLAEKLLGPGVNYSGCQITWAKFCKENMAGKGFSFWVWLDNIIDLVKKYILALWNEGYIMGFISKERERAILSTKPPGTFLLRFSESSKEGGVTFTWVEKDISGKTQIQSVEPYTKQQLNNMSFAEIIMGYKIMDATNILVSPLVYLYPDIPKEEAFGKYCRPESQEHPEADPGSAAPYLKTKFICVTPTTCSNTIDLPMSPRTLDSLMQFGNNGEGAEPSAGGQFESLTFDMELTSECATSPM
readout-label: pKd
Convention used: pKd is expressed as -log10 of the molar concentration.

input: Entry NS(=O)(=O)c1cccc2c1C(=O)C=C(Nc1ccccc1N1CCNCC1)C2=O [LY-17] : reported pKd = ?
output: 5.62
